# assaySummary: Solubility of CD101 acetate in various media
# Assay type: physicochemical
# statedConditions: aqueous with cosolvent or surfactant or cyclodextrin; 0.3% acetic acid, 5% mannitol, 2.5% Tween 80, pH 4.5; maximum solubility not reached; read-out: Solubility
Starred links: 1 amine or outer side, 2 acyl side, 3 side chain; linkers in the order of their positions; H or OH if unused. Positions of bridges follow the written chain, without caps; N, C: chain ends. Non-standard residues stand in square brackets, D forms with d. Residues, ends and D or L forms follow the SMILES beside them. *: point of attachment. Orn(4R-OH,5R-OCH2CH2NMe3+) = C[N+](C)(C)CCO[C@@H](N[*:3])[C@H](O)C[C@H](N[*:1])C(=O)[*:2]; pTerphenylCO(4''-OnC5H11) = CCCCCOc1ccc(-c2ccc(-c3ccc(C(=O)*)cc3)cc2)cc1; hTyr(3S-OH,4S-OH) = N[C@H](C(=O)O)[C@H](O)[C@@H](O)c1ccc(O)cc1; Pro(3S-OH,4S-Me) = C[C@H]1CN[C@H](C(=O)O)[C@H]1O; Hyp = O=C(O)[C@@H]1C[C@@H](O)CN1
quantityMeasured: solubility

compound	result
CCCCCOc1ccc(-c2ccc(-c3ccc(C(=O)N[C@H]4C[C@@H](O)[C@@H](OCC[N+](C)(C)C)NC(=O)[C@@H]5[C@@H](O)[C@@H](C)CN5C(=O)[C@H]([C@@H](C)O)NC(=O)[C@H]([C@H](O)[C@@H](O)c5ccc(O)cc5)NC(=O)[C@@H]5C[C@@H](O)CN5C(=O)[C@H]([C@@H](C)O)NC4=O)cc3)cc2)cc1 [CD101 acetate] ({pTerphenylCO(4''-OnC5H11)}-[Orn(4R-OH,5R-OCH2CH2NMe3+)]T[Hyp][hTyr(3S-OH,4S-OH)]T[Pro(3S-OH,4S-Me)]; lactam 1-C)	> 15 mg/mL
